- method_summary: NCI Yeast Anticancer Drug Screen. Data for the rad50 strain (AID 155)
- conditions_used: S. cerevisiae rad50 strain growth inhibition; at 50.0 µM (retest, dose inferred, filed as 5.0)
Compounds without any hit were thinned out: in the full panel of roughly 79,000, 15% have a hit. Activity calls are given as the source filed them. No stated cut-off is given here; in the data, active means growth inhibition above about 70%; inactive means the rest.
Valid outcomes are listed here; reply with one: Y for active, N for inactive

Q: Dear all, I need the recorded test outcome for "Cc1ccc(CNc2ccc(Br)cc2)cc1" , thank you.
A: Y

Q: Dear all, I need the recorded test outcome for "CCCCCCSc1nc(COC(=O)NC)c(COC(=O)NC)n1C" , thank you.
A: Y

Q: Dear all, I need the recorded test outcome for "Cc1nc2c(ncn2CCO)c(=O)[nH]1" , thank you.
A: N

Q: Dear all, I need the recorded test outcome for "S=c1[nH]nc(-c2ccc(Cl)cc2)s1" , thank you.
A: Y

Q: Dear all, I need the recorded test outcome for "CN(C)c1ccc(N=Nc2ccccn2)cc1" , thank you.
A: Y

Q: Dear all, I need the recorded test outcome for "O=Nc1ccc(Nc2ccccc2)cc1" , thank you.
A: N

Q: Dear all, I need the recorded test outcome for CC1(C)C(C=O)=CCC1CC(N)=O (stereo not drawn) , thank you.
A: N

Q: Dear all, I need the recorded test outcome for "COC(=O)CSc1nnc(CSc2ccc(Cl)cc2)n1-c1ccccc1" , thank you.
A: N

Q: Dear all, I need the recorded test outcome for CCOP1(=O)C=C(Sc2ccc([N+](=O)[O-])cc2[N+](=O)[O-])C(C)(C)O1 (stereo not drawn) , thank you.
A: N

Q: Dear all, I need the recorded test outcome for "Oc1ccc(Br)cc1C=NC1CCCCC1" , thank you.
A: N

Q: Dear all, I need the recorded test outcome for "CN=C(N)N/N=C(\C)c1ccc2oc3ccc(/C(C)=N/NC(N)=NC)cc3c2c1" , thank you.
A: Y

Q: Dear all, I need the recorded test outcome for "NNC(=S)Nc1cccc2ccccc12" , thank you.
A: N

Q: Dear all, I need the recorded test outcome for CC1=CC2C(C(C)C)CC1C1C(=O)OC(=O)C21 (stereo not drawn) , thank you.
A: Y
